Hey, just so you know, these numbers are from ChEMBL document CHEMBL1201862.

tested on: M14; test: NCI tumour cell line growth inhibition, 48 h
The source made the active and inactive calls. Cut-off read from the data, not from the text of the source: active = GI50 up to about 1.1 µM and inactive = higher.
quantity_measured: GI50

Record excerpt, results attached:
CCOC(=O)C(=O)/C(=C/NC(=S)Nc1ccc(Cl)c(Cl)c1)C(=O)OCC ... 75.3 µM (inactive)
CCCOC(=O)C1CCC(=O)N1C(=O)C(C)Cl (centres undefined) ... > 100 µM (inactive)
CC(N)C(=O)c1ccc(O)cc1 (centres undefined) ... > 100 µM (inactive)

Value of measured GI50 for the entry COC(=O)/C=C/c1ccc2nncnc2c1.COC(=O)/C=C\c1ccc2nncnc2c1 : 21 µM (inactive)

###

test system: PC-3; experiment: NCI tumour cell line growth inhibition, 48 h
Active and inactive are the calls of the source. No stated cut-off is given here; in the data, active = GI50 up to about 1.1 µM and inactive = higher.
Recorded GI50 values for a group of molecules are listed next.

Lab book: GI50 of C=CCN(c1cc(OC)c2[nH]c(C(=O)OCC)c(C)c2c1[N+](=O)[O-])S(C)(=O)=O noted as 18 µM (inactive)

Per the record, CCN(CC)CCOCC1CCCN2CCCCC12 (stereo unspecified) has GI50 of > 100 µM (inactive)

So for Cc1cn([C@@H]2C[C@@H]2CO)c(=O)[nH]c1=O , the logged GI50 turned out to be > 100 µM (inactive)

###

tested on: CCRF-CEM; assay: NCI tumour cell line growth inhibition, 48 h
Active and inactive are the calls of the source. No stated cut-off is given here; in the data, active = GI50 up to about 1.1 µM and inactive = higher.
Choose one outcome from this list and give only that: active, inactive

C[N+](C)(C)CC1CCCC1=O (stereo unspecified) ... active
CCN(CC)CCOCC1CCCN2CCCCC12 (stereo unspecified) ... inactive
CCOC(=O)NC(=O)c1cn(CCN2CCNCC2)c(=O)[nH]c1=O ... inactive
Cc1c2cc[n+](C)cc2c(C)c2c1[nH]c1ccc(Oc3ccccc3)cc12 ... inactive
Cc1ccc2nc3c(C(=O)NCCN(C)C)cccc3cc2c1 ... inactive

Now for another entry.
Hey, what did the test say about CC(C)OC(=O)NNc1cc(Cl)ccc1Cl ?
inactive

###

test system: RPMI-8226; assay: NCI tumour cell line growth inhibition, 48 h
Calls of active or inactive are those of the source. No stated cut-off is given here; in the data, active = GI50 up to about 1.1 µM and inactive = higher.
quantity_measured: GI50

CCN(CC)c1ccc2cc(-c3nnc(-c4ccccc4O)o3)c(=O)oc2c1 ... 14.6 µM (inactive)

Bench note, RPMI-8226: entry CC(C)CCCC(C)[C@H]1CC[C@H]2N/C(=N/c3ccccc3)CCC[C@]12C (stereo partly specified) , its GI50 = 1.65 µM (inactive)

Here OC1CC(O)O[C@H](c2ccccc2)C1 (stereo partly specified) was tested on RPMI-8226, and its GI50 came to > 100 µM (inactive)

For the molecule COc1ccc(-n2sc3ncc(C)cc3c2=O)cc1 , the measured GI50 on RPMI-8226 was 26.2 µM (inactive)

Form field GI50 for item COc1ccc2cc3[n+](cc2c1O)CCc1cc2c(cc1-3)OCO2 [BERBERRUBINE CHLORIDE] on RPMI-8226: > 100 µM (inactive)

For COc1ccc(CCNC(=O)Cc2ccccc2CCO)cc1OC on RPMI-8226, measured GI50 was > 100 µM (inactive)

Observed GI50 on RPMI-8226, entry O=c1c2ncn(C3CC(O)C(CO)O3)c2nnn1Cc1ccccc1[N+](=O)[O-] (stereo unspecified) , equals > 100 µM (inactive)

Field GI50 (system: RPMI-8226) for entry Cc1cc(S(=O)(=O)NC(=C(C#N)C#N)[n+]2ccc(N(C)C)cc2)c([S-])cc1Cl = > 100 µM (inactive)

###

test system: OVCAR-8; assay: NCI tumour cell line growth inhibition, 48 h
Calls of active or inactive are those of the source. Cut-off read from the data, not from the text of the source: active = GI50 up to about 1.1 µM and inactive = higher.
Give your call using only these classes: label 1 for active, label 0 for inactive

The examples below pair each entry with its known result.
Cc1c(C(=O)CSc2nc3cc([N+](=O)[O-])ccc3[nH]2)c(=O)n(-c2ccccc2)n1C ... label 0
O=C1CC2(C[C@@H]3CCCCCCCCC[C@@H](C3)C2)N1 (some centres undefined) ... label 0
CCOC(=O)N1CCN(c2ccc3c(C)cc(C)nc3n2)CC1 ... label 0
CC(=O)OC1[C@@H](OC(C)=O)CN(OCc2ccccc2)C[C@H]1OC(C)=O (some centres undefined) ... label 0
CCOC(=O)C1C(=O)C(=O)N2CCc3c([nH]c4ccccc34)C12 (centres undefined) ... label 0
CC1=CC(=O)/C(=C/n2c(=S)[nH]c3cc(C)ccc32)C(=O)O1 ... label 0
O=C1CN2C(Cl)(Cl)C2(c2ccccc2)c2cc(Cl)ccc2N1CC(F)(F)F (centres undefined) ... label 0
NC(CCC(=O)NC(CSC(=O)N(O)c1ccccc1)C(=O)NCC(=O)O)C(=O)O (centres undefined) ... label 0

What did the test return for Cc1cn(C2CC(CCCO)C(CO)O2)c(=O)[nH]c1=O (centres undefined) ?
label 0

I'd appreciate the recorded outcome for Cc1cccc2c1CC(Cc1ccccc1C(=O)O)C2=O (centres undefined) from this test.
label 0

Query: recorded result category for O=C(C#Cc1ccccc1)Nc1ccccc1CC(c1c[nH]c2ccccc12)c1c[nH]c2ccccc12 in this test
label 0

Per the records of this test, what outcome belongs to O=C(O)/C=C/n1c2ccccc2c(=O)c2ccccc21 ?
label 0

Outcome? COc1cc2c3c(c1OC)C(=O)C=C3N(S(=O)(=O)c1ccc(C)cc1)CC2
label 0

Test call for this molecule, please: Cc1cc(C)c2c(O)c(S(=O)(=O)c3ccc(Cl)cc3)c(=O)oc2c1
label 0

# fetch the recorded call for COC(=O)C(NC(=O)c1ccccc1)C(c1ccc(Cl)cc1)P(=O)(OC)OC (centres undefined) here
label 0

I would be grateful if you could indicate the recorded call for CNC(=O)CC1NC(=O)c2csc(n2)-c2ccc(-c3nc(C4=NC(C(=O)N5CCCC5C(N)=O)CO4)cs3)nc2-c2csc(n2)-c2csc(n2)C(C(C)C)NC(=O)CNC(=O)c2csc(n2)C(C(C)C)NC(=O)c2nc1sc2C (centres undefined) .
label 1

###

Documented GI50 across a set of compounds
system: RXF 393; test: NCI tumour cell line growth inhibition, 48 h
Calls of active or inactive are those of the source. No stated cut-off is given here; in the data, active = GI50 up to about 1.1 µM and inactive = higher.

CC(=O)O[C@H]1CC[C@H]2[C@@H]3CC[C@H]4Nc5c(cnn5S(C)(=O)=O)C[C@]4(C)[C@H]3CC[C@]12C ... > 100 µM (inactive)

GI50 for O=c1cnn(C2OC(C(O)CO)C(O)C2O)c(=O)[nH]1 (stereo unspecified) is > 100 µM (inactive)

Recorded result, C[C@@H]([C@H]1CC[C@@]2(C)[C@@H]3CC[C@@H]4C(=CC3=CC[C@]12C)CC[C@H](N(C)C)C4(C)C)N(C)C , GI50: > 100 µM (inactive)

###

system: MDA-MB-435; assay: NCI tumour cell line growth inhibition, 48 h
Activity calls are given as the source filed them. No stated cut-off is given here; in the data, active = GI50 up to about 1.1 µM and inactive = higher.
Select the matching outcome among active, inactive

Previously resolved entries follow.
Cc1cc2c(=Cc3ccc(N(C)C)cc3)c3ccccc3n2[n+]1C ... active
Cc1ccc(C)n2c1nc1ccccc12 ... inactive
O=C(/C=C/c1ccc(O)c(-c2cc(C(=O)/C=C/c3ccc(O)cc3)c(O)cc2O)c1)c1ccc(O)cc1O [RHUSCHALCONE VI] ... inactive
NC(CC(=O)O)(Cc1ccccc1)C(=O)O (configuration not stated) ... inactive
CCOC(=O)N1CCN(c2ccc3c(C)cc(C)nc3n2)CC1 ... inactive

Just curious, what result did COc1ccc(C2Oc3c(cccc3OC)C=C2[N+](=O)[O-])cc1OC (configuration not stated) get here?
inactive

GET /call?item= COc1ccc(CCNC(=O)Cc2ccccc2CCO)cc1OC returns the recorded outcome of this test.
inactive

###

tested on: OVCAR-3; experiment: NCI tumour cell line growth inhibition, 48 h
Activity calls are given as the source filed them. Rule as the data show it: active = GI50 up to about 1.1 µM and inactive = higher.
quantity_measured: GI50

Answered cases to consult:
O=C1CN(C(=O)C2CCCN2C(=O)C2CCCN2)C(=O)CN1 (configuration not stated) ... > 100 µM (inactive)
CC(C)C(C/C=C1/CC(CO)(COC(=O)C2CCCCC2)OC1=O)C(C)C (configuration not stated) ... 18.5 µM (inactive)
NC(CCC(=O)NC(CSC(=O)N(O)c1ccccc1)C(=O)NCC(=O)O)C(=O)O (configuration not stated) ... > 1000 µM (inactive)

Reported GI50 for C[C@]12CC[C@H](O)CC1=CC[C@@H]1C2CC[C@]2(C)C(=O)N(N)C(=O)CC12 (some centres not stated) was > 100 µM (inactive)

Value of measured GI50 for the entry COc1cc(NCC(C#N)C#N)ccc1/N=N/c1ccc([N+](=O)[O-])cc1 : 64.3 µM (inactive)

Sure, the documented GI50 for CC/C=C/C(CC)C/C(C)=C\[C@]1(CC)C[C@H](CC)[C@H](CC(=O)O)OO1 (some centres not stated) is 1.15 µM (inactive)

Record COc1ccc2ccc3oc(=O)c(C)cc3c2c1 . Reported GI50: > 100 µM (inactive)

Record COc1ccc(/C=C/c2cc(OC)cc(=O)o2)cc1 , field GI50: > 100 µM (inactive)

The compound CCC1NCC(=O)c2c1[nH]c1ccccc21 (configuration not stated) showed GI50 equal to > 100 µM (inactive)

// recorded GI50 for COc1cc(/C=C2\CC3C4CC[C@H]5C[C@@H](O)CC[C@]5(C)C4CC[C@]3(C)\C2=N\O)cc(OC)c1OC (some centres not stated) : 3.27 µM (inactive)
